Test system: Enterobacter cloacoae N1
method: MIC in a standard test
Format: cell-based
measurement.label: MIC (µg/mL)

>  <compound>
COCCSC1=C(C(=O)O)N2C(=O)C[C@H]2C1

>  <measurement.label>
MIC

>  <val>
6.2

$$$$
>  <compound>
CCSC1=C(C(=O)O)N2C(=O)[C@@H](C)[C@H]2C1 (relative stereo)

>  <measurement.label>
MIC

>  <val>
6.2

$$$$
>  <compound>
NCCSC1=C(C(=O)O)N2C(=O)CC2C1 (stereo not drawn)

>  <measurement.label>
MIC

>  <val>
3.1

$$$$
>  <compound>
CSC1=C(C(=O)[O-])N2C(=O)CC2C1.[Na+] (stereo not drawn)

>  <measurement.label>
MIC

>  <val>
3.1

$$$$
>  <compound>
O=C(O)C1=C(SCc2ccccc2)C[C@@H]2CC(=O)N12

>  <measurement.label>
MIC

>  <val>
12.5

$$$$
>  <compound>
CCSC1=C(C(=O)OCc2ccc([N+](=O)[O-])cc2)N2C(=O)[C@@H](CCN=[N+]=[N-])[C@H]2C1 (relative stereo)

>  <measurement.label>
MIC

>  <val>
12.5

$$$$
>  <compound>
CNC(=O)OCCSC1=C(C(=O)[O-])N2C(=O)CC2C1.[Na+] (stereo not drawn)

>  <measurement.label>
MIC

>  <val>
1.6

$$$$
>  <compound>
CCSC1=C(C(=O)[O-])N2C(=O)CC2C1.[Na+] (stereo not drawn)

>  <measurement.label>
MIC

>  <val>
2.5

$$$$
>  <compound>
CCSC1=C(C(=O)OC2OC(=O)c3ccccc32)N2C(=O)[C@@H](CC)[C@H]2C1 (stereo partly drawn)

>  <measurement.label>
MIC

>  <val>
12.5

$$$$

----------
System: Proteus rettgeri WM16

>  <molecule>
O=C(O)C1=C(SCc2ccccc2)C[C@@H]2CC(=O)N12

>  <MIC>
> 50 µg/mL

$$$$
>  <molecule>
CCSC1=C(C(=O)OC2OC(=O)c3ccccc32)N2C(=O)C[C@H]2C1 (some centres unmarked)

>  <MIC>
> 50 µg/mL

$$$$
>  <molecule>
COCCSC1=C(C(=O)O)N2C(=O)C[C@H]2C1

>  <MIC>
50 µg/mL

$$$$
>  <molecule>
CCSC1=C(C(=O)OC2OC(=O)c3ccccc32)N2C(=O)[C@@H](CC)[C@H]2C1 (some centres unmarked)

>  <MIC>
25 µg/mL

$$$$
>  <molecule>
CCSC1=C(C(=O)[O-])N2C(=O)CC2C1.[Na+] (centres unmarked)

>  <MIC>
50 µg/mL

$$$$

----------
Test system: Streptococcus pyogenes CN10
method: MIC in a standard test
Type: cell-based
Threshold-based label: MIC under 2 µg/mL gives Met, MIC not under 2 µg/mL gives Not met.

>  <compound>
CCSC1=C(C(=O)[O-])N2C(=O)CC2C1.[Na+] (stereo not shown) [Example 7]

>  <qualitative.label>
Met

$$$$
>  <compound>
NCCSC1=C(C(=O)O)N2C(=O)CC2C1 (stereo not shown) [Example 15]

>  <qualitative.label>
Met

$$$$
>  <compound>
O=C(O)C1=C(SCc2ccccc2)C[C@@H]2CC(=O)N12 [Example 47]

>  <qualitative.label>
Met

$$$$
>  <compound>
CCSC1=C(C(=O)OC2OC(=O)c3ccccc32)N2C(=O)[C@@H](CC)[C@H]2C1 (stereo partly shown) [Example 75]

>  <qualitative.label>
Not met

$$$$
>  <compound>
CSC1=C(C(=O)[O-])N2C(=O)CC2C1.[Na+] (stereo not shown) [Example 42]

>  <qualitative.label>
Met

$$$$
>  <compound>
COCCSC1=C(C(=O)O)N2C(=O)C[C@H]2C1 [Example 32]

>  <qualitative.label>
Met

$$$$
>  <compound>
COC(=O)CCSC1=C(C(=O)O)N2C(=O)C[C@H]2C1 [Example 23]

>  <qualitative.label>
Met

$$$$
>  <compound>
CNC(=O)OCCSC1=C(C(=O)[O-])N2C(=O)CC2C1.[Na+] (stereo not shown) [Example 37]

>  <qualitative.label>
Met

$$$$
>  <compound>
CCSC1=C(C(=O)O)N2C(=O)[C@@H](C)[C@H]2C1 (relative stereo) [Example 79]

>  <qualitative.label>
Not met

$$$$
>  <compound>
CCSC1=C(C(=O)OC2OC(=O)c3ccccc32)N2C(=O)C[C@H]2C1 (stereo partly shown) [Example 9]

>  <qualitative.label>
Not met

$$$$

----------
Test system: Serratia marcescens US20
method: MIC in a standard test
Type: cell-based

>  <molecule>
O=C(O)C1=C(SCc2ccccc2)C[C@@H]2CC(=O)N12 [Example 47]

>  <unit.annotation>
µg/mL

>  <MIC>
50

$$$$
>  <molecule>
COC(=O)CCSC1=C(C(=O)O)N2C(=O)C[C@H]2C1 [Example 23]

>  <unit.annotation>
µg/mL

>  <MIC>
25

$$$$
>  <molecule>
CCSC1=C(C(=O)[O-])N2C(=O)CC2C1.[Na+] (centres unmarked) [Example 7]

>  <unit.annotation>
µg/mL

>  <MIC>
10

$$$$
>  <molecule>
CNC(=O)OCCSC1=C(C(=O)[O-])N2C(=O)CC2C1.[Na+] (centres unmarked) [Example 37]

>  <unit.annotation>
µg/mL

>  <MIC>
6.2

$$$$
>  <molecule>
CCSC1=C(C(=O)OC2OC(=O)c3ccccc32)N2C(=O)C[C@H]2C1 (some centres unmarked) [Example 9]

>  <unit.annotation>
µg/mL

>  <MIC>
50

$$$$

----------
Reported MIC values for a set of molecules
Test system: Serratia marcescens US20
method: MIC in a standard test
Type: cell-based

>  <molecule>
NCCSC1=C(C(=O)O)N2C(=O)CC2C1 (stereo not drawn) [Example 15]

>  <MIC / µg/mL>
6.2

$$$$
>  <molecule>
CSC1=C(C(=O)[O-])N2C(=O)CC2C1.[Na+] (stereo not drawn) [Example 42]

>  <MIC / µg/mL>
3.1

$$$$
>  <molecule>
CCSC1=C(C(=O)OCc2ccc([N+](=O)[O-])cc2)N2C(=O)[C@@H](CCN=[N+]=[N-])[C@H]2C1 (relative stereo) [Example 82]

>  <MIC / µg/mL>
12.5

$$$$
>  <molecule>
CCSC1=C(C(=O)O)N2C(=O)[C@@H](C)[C@H]2C1 (relative stereo) [Example 79]

>  <MIC / µg/mL>
12.5

$$$$
>  <molecule>
COCCSC1=C(C(=O)O)N2C(=O)C[C@H]2C1 [Example 32]

>  <MIC / µg/mL>
12.5

$$$$
>  <molecule>
CCSC1=C(C(=O)OC2OC(=O)c3ccccc32)N2C(=O)[C@@H](CC)[C@H]2C1 (stereo partly drawn) [Example 75]

>  <MIC / µg/mL>
50

$$$$

----------
Reported MIC values for a set of compounds
Test system: Staphylococcus aureus 1517
method: MIC in a standard test
Assay type: cell-based
measurement.label: MIC

>  <compound>
CCSC1=C(C(=O)OC2OC(=O)c3ccccc32)N2C(=O)[C@@H](CC)[C@H]2C1 (stereo partly shown) [Example 75]

>  <measurement.label>
MIC

>  <val>
> 50 µg/mL

$$$$
>  <compound>
CCSC1=C(C(=O)OCc2ccc([N+](=O)[O-])cc2)N2C(=O)[C@@H](CCN=[N+]=[N-])[C@H]2C1 (relative stereo) [Example 82]

>  <measurement.label>
MIC

>  <val>
50 µg/mL

$$$$
>  <compound>
CSC1=C(C(=O)[O-])N2C(=O)CC2C1.[Na+] (stereo not shown) [Example 42]

>  <measurement.label>
MIC

>  <val>
> 50 µg/mL

$$$$
>  <compound>
CCSC1=C(C(=O)O)N2C(=O)[C@@H](C)[C@H]2C1 (relative stereo) [Example 79]

>  <measurement.label>
MIC

>  <val>
> 50 µg/mL

$$$$
>  <compound>
O=C(O)C1=C(SCc2ccccc2)C[C@@H]2CC(=O)N12 [Example 47]

>  <measurement.label>
MIC

>  <val>
> 50 µg/mL

$$$$
>  <compound>
COCCSC1=C(C(=O)O)N2C(=O)C[C@H]2C1 [Example 32]

>  <measurement.label>
MIC

>  <val>
> 50 µg/mL

$$$$
>  <compound>
CCSC1=C(C(=O)OC2OC(=O)c3ccccc32)N2C(=O)C[C@H]2C1 (stereo partly shown) [Example 9]

>  <measurement.label>
MIC

>  <val>
> 50 µg/mL

$$$$
>  <compound>
COC(=O)CCSC1=C(C(=O)O)N2C(=O)C[C@H]2C1 [Example 23]

>  <measurement.label>
MIC

>  <val>
> 50 µg/mL

$$$$
>  <compound>
CNC(=O)OCCSC1=C(C(=O)[O-])N2C(=O)CC2C1.[Na+] (stereo not shown) [Example 37]

>  <measurement.label>
MIC

>  <val>
> 50 µg/mL

$$$$
>  <compound>
CCSC1=C(C(=O)[O-])N2C(=O)CC2C1.[Na+] (stereo not shown) [Example 7]

>  <measurement.label>
MIC

>  <val>
> 100 µg/mL

$$$$
